Test: Luminescence Cell-Based Dose Response HTS to Identify Activators of Luciferase Translation or Activity in H4 […] Cells. [Related pubchem assays: 1829 (Project Summary), 1814 (Primary HTS)]
Format: functional
Activity calls are given as the source filed them.
List of EC50 values.

Answered examples (2):
| SAMPLE_SMILES | REPORTED_PROPERTY | VALUE_MEASURED |
| --- | --- | --- |
| C=CCOc1c(Cl)cc(C(=S)N2CCCC2)cc1OCC | EC50 | > 120 µM (not active) |
| COc1cc2c(cc1NC(=O)CN1CCN(S(=O)(=O)c3ccccc3F)CC1)oc1ccccc12 | EC50 | > 120 µM (not active) |

Q: Recorded EC50 for CCc1nnc(NC(=O)c2nc(S(=O)(=O)Cc3cccc(C)c3)ncc2Cl)s1 , please?
Ans: > 120 µM (not active)

Q: Recorded EC50 for c1ccn2c(c1)nc1c2nc2ccccn21 , please?
Ans: 25.1 µM (active)

Q: Recorded EC50 for Cc1ccc2c(c1)sc[n+]2Cc1ccccc1 , please?
Ans: 46.1 µM (active)

* * *

Target: High affinity choline transporter 1 (Homo sapiens, UniProt Q9GZV3)
Sequence (Q9GZV3 whole entry): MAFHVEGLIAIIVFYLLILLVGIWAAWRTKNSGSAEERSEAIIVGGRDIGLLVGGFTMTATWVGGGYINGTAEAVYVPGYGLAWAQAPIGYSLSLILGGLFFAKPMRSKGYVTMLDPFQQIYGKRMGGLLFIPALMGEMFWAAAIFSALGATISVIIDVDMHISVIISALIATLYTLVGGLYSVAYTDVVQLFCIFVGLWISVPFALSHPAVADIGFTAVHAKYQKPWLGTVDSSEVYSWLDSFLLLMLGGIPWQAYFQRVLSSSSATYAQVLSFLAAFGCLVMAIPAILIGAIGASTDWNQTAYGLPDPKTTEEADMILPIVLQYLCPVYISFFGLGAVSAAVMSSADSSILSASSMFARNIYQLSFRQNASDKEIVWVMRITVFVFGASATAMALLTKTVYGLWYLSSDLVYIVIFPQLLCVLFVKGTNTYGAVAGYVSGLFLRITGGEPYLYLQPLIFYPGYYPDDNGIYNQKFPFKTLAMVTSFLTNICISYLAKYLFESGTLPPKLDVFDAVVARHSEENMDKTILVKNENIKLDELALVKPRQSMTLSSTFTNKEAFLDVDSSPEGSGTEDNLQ
Assay: human choline transporter blockers, potency – cell-based, 5-point CRC, membrane potential dye, dose response (AID 504840)
Type: functional
Activity calls are given as the source filed them.
List of IC50 values.

Answered examples (2):
| SAMPLE_SMILES | MEASUREMENT_TARGET | IC50 |
| --- | --- | --- |
| Cc1ccc(N2NC(=O)/C(=C\c3cc4c(cc3[N+](=O)[O-])OCO4)C2=O)cc1C | High affinity choline transporter 1 (Homo sapiens, UniProt Q9GZV3) | 3.98 µM (active) |
| CN1CCN(CCNC(=O)c2ccc3nc(-c4ccc(F)cc4)c(-c4ccc(F)cc4)nc3c2)CC1 | High affinity choline transporter 1 (Homo sapiens, UniProt Q9GZV3) | 4.58 µM (active) |

Q: Recorded IC50 for O=C(O)C1CCN(c2nc(-c3ccccc3)nc3c2oc2ccccc23)CC1 , please?
Ans: 9.12 µM (active)

Q: Recorded IC50 for CCc1nnc(NC(=O)c2nc(S(=O)(=O)Cc3cccc(C)c3)ncc2Cl)s1 , please?
Ans: 2.4 µM (active)

* * *

Molecular target: Replicative DNA helicase DnaB (Mycobacterium tuberculosis)
Assay: DnaB intein splicing inhibitors, dose response, biochemical, cell-free fluorescence (AID 449749)
Type: functional
Activity calls are given as the source filed them.
Give one outcome, nothing more. List: active, inactive

Would you please look over these solved cases?
| COMPOUND | LABEL |
| --- | --- |
| CCc1[nH]nc2c1C(Cc1ccccc1)C(C#N)=C(N)O2 (stereo unspecified) | active |
| COc1ccc(-c2cc(C(F)(F)F)nc(S(C)(=O)=O)n2)cc1 | active |
| COc1ccc(Nc2nc(N3CCCCC3)nc3ccccc23)c(OC)c1 | active |
| O=C(CCl)Nc1ccc(-c2ccccc2)cc1 | active |
| COC1=CC(=O)C(O)=C(CCCCCCC/C=C/CCCCCCCC2=C(O)C(=O)C=C(OC)C2=O)C1=O | active |

Please find the next compound below.
Q: Dear all, I need the recorded test outcome for CS(=O)(=O)c1nc(-c2ccco2)cc(C(F)(F)F)n1 , thank you.
Ans: inactive

* * *

System: P388/ADR
Assay: cells
Format: functional
Settings: Mus musculus
Activity calls are given as the source filed them.
Give one outcome, nothing more. List: active, inactive

Would you please look over these solved cases?
| MOLECULE | MEASUREMENT_TARGET | LABEL |
| --- | --- | --- |
| O=NN(CCF)C(=O)NC1CCSCC1 | P388/ADR | inactive |
| COc1cc(/C=C/C(=O)Oc2ccc(NC(C)=O)cc2)ccc1C(=O)OCc1ccccc1 | P388/ADR | active |
| COc1nc(O)c(N)c(NC2OC(CO)C(O)C(O)C2O)n1 (stereo not given) | P388/ADR | inactive |
| O=C(O)C1Cc2c([nH]c3ccccc23)C=N1 (stereo not given) | P388/ADR | inactive |

Please find the next molecule below.
Q: Dear all, I need the recorded test outcome for CCC(C(C)N1CC(=O)NC(=O)C1)N1CC(=O)NC(=O)C1 (stereo not given) , thank you.
Ans: inactive

* * *

Biological target: Streptokinase A (Streptococcus pyogenes serotype M1, UniProt P10520)
Sequence (P10520 whole entry): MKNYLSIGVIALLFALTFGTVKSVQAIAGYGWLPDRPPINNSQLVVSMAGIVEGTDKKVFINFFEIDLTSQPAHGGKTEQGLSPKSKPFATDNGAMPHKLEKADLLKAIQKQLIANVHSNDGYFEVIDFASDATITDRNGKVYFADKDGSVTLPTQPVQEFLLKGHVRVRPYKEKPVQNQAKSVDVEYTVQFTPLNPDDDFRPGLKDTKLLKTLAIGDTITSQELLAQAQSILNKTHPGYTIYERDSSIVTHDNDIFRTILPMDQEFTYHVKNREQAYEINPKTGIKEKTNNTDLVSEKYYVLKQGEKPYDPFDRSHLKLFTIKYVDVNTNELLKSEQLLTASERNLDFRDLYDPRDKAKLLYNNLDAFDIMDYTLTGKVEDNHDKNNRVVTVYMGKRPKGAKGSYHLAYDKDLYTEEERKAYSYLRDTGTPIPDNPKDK
Test: viability-normalized secreted streptokinase activity reduction – plasminogen activation absorbance, OD405, dose response (AID 1914);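 also: secreted streptokinase activity via plasminogen activation per viability signal from cell pellet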
Format: functional, Streptococcus pyogenes M1 GAS
Calls of active or inactive are those of the source.
REPORTED_PROPERTY: EC50

Answered examples (5):
| COMPOUND | REPORTED_PROPERTY | VALUE_MEASURED |
| --- | --- | --- |
| Cc1ccc(C)c(-c2nnc(NC(=O)COc3ccccc3)o2)c1 | EC50 | > 150 µM (not active) |
| O=C(CN1CCc2ccccc2C1)Nc1ccccc1N1CCCCCC1 | EC50 | 13 µM (active) |
| Clc1ccc(N2COC3c4cccc5cccc(c45)C32)cc1 (stereo unspecified) | EC50 | 14.2 µM (active) |
| CCc1sc(N(C(=O)Cc2ccccc2)c2ccc(F)cc2)nc1-c1ccccc1 | EC50 | 11.8 µM (active) |
| COC(=O)/C=C1\SC(Nc2ccc(Cl)c(Cl)c2)=NC1=O | EC50 | 15.4 µM (active) |

Now, please, on to the next compound.
Q: Recorded EC50 for Cc1ccc2cc(CN(Cc3cccs3)C(=O)c3ccco3)c3nnnn3c2c1C , please?
Ans: > 150 µM (not active)

* * *

Test system: H9c2;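 also: cell death induced by hydrogen peroxide oxidative stress; compound pretreatment for 60 min then peroxide exposure for 2 h; potency is for protecting the cells against peroxide damage rather than for killing them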;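 also: confirmatory concentration-response retest of ultra-high-throughput screening hits for modulation of myocardial damage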
Assay: cells
Format: functional, cell-based
Settings: Rattus norvegicus, H9c2, Myocardium
Calls of active or inactive are those of the source.
Give one outcome, nothing more. List: active, inactive

Would you please look over these solved cases?
| MOLECULE | LABEL |
| --- | --- |
| CCc1nc2ccccc2c(C(=O)OCc2nc(O)c3ccccc3n2)c1C | active |
| O=C(Nc1ccccc1)c1cccc2c(-c3cccnc3)coc12 | inactive |
| COc1cc(NC(=O)c2ccco2)c(C(=O)OCC(=O)c2c[nH]c3ccccc23)cc1OC | inactive |

Q: Dear all, I need the recorded test outcome for O=C(Cn1[nH]c(=O)c2ccccc2c1=O)NCC1COc2ccccc2O1 (stereo unspecified) , thank you.
Ans: inactive

Q: Dear all, I need the recorded test outcome for COc1ccc(NCc2cc3cc(OC)ccc3nc2O)cc1 , thank you.
Ans: inactive

Q: Dear all, I need the recorded test outcome for O=C(N/N=C/c1ccccn1)c1cc(-c2ccncc2)nc2ccccc12 , thank you.
Ans: inactive

* * *

Molecular target: Protein RecA (Mycobacterium tuberculosis)
Sequence (P9WHJ3 whole entry): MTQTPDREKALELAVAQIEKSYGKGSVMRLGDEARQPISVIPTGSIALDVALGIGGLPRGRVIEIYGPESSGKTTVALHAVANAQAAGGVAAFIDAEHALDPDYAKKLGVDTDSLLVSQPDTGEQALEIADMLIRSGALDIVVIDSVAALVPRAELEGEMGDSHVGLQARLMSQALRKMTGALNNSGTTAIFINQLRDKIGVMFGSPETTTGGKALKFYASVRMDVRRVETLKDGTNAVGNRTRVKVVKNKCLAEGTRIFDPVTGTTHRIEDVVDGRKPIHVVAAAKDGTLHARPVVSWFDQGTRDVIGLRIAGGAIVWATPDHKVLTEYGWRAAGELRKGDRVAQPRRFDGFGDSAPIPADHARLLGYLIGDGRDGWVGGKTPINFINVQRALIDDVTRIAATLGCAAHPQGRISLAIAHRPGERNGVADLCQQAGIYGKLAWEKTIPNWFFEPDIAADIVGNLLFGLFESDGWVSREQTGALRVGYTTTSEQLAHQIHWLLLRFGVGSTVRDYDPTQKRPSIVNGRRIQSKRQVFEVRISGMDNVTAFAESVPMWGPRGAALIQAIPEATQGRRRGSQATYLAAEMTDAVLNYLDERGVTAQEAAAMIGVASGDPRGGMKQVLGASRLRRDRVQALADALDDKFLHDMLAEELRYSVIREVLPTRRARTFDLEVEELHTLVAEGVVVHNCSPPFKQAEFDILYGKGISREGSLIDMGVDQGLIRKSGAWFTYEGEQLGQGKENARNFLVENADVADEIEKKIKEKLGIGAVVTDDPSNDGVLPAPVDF
Test: Fluorescence Cell-Free Homogeneous Dose Retest to Identify Inhibitors of RecA-Intein Splicing Activity. [Related pubchem assays (depositor defined):AID2097, AID2223, AID489010, AID492950]
Assay type: functional
Active and inactive are the calls of the source.
Give one outcome, nothing more. List: t for active, f for inactive

Would you please look over these solved cases?
| COMPOUND | LABEL |
| --- | --- |
| CC1=C(C)/C(=N\OS(=O)(=O)c2ccccc2)C=CC1=O | t |
| CS(=O)(=O)c1nc(-c2ccco2)cc(C(F)(F)F)n1 | f |
| O=C(CCl)Nc1ccc(-c2ccccc2)cc1 | t |
| COc1cccc(NC(=O)CSc2c3c(nc4ccccc24)CCCC3)c1 | t |
| Cc1cc(C(=O)CCl)c(C)n1CCc1ccccc1 | t |
| COc1ccc(-c2[nH]nc3c2C(c2ccncc2)C(C#N)=C(N)O3)cc1 (centres undefined) | t |

Q: Dear all, I need the recorded test outcome for Cc1ccc(Cn2ncc(Cl)c(Cl)c2=O)cc1 , thank you.
Ans: t

Q: Dear all, I need the recorded test outcome for O=C(Oc1ccc(N(C(=O)c2ccncc2)S(=O)(=O)c2ccc(Cl)cc2)cc1)c1ccncc1 , thank you.
Ans: t

Q: Dear all, I need the recorded test outcome for COc1ccc(N2C(=O)C(Cl)=C(Oc3cccc(OC)c3)C2=O)cc1 , thank you.
Ans: t

Values were extracted from ChEMBL document CHEMBL1201862.
